# credit: ChEMBL document CHEMBL1201862

Listed here are molecules together with their documented GI50.
Test system: IGROV-1
Assay: NCI tumour cell line growth inhibition, 48 h
Calls of active or inactive are those of the source. Rule as the data show it: active = GI50 up to about 1.1 µM and inactive = higher.

MOLECULE	TARGET_ENTITY	VALUE_MEASURED
COc1ccc2c3c([nH]c2c1[N+](=O)[O-])C(C)=NCC3	IGROV-1	20.9 µM (inactive)
O=C1CC[N+]2=Cc3ccccc3O[B-]2(c2ccccc2)O1 (configuration not stated)	IGROV-1	> 100 µM (inactive)
O=C(O)CSc1nnc2c3ccccc3c3ccccc3c2n1	IGROV-1	55.6 µM (inactive)
S=CN1CCCCC1	IGROV-1	> 100 µM (inactive)
O=c1cccccc1NCCCCCCCCCNc1cccccc1=O	IGROV-1	19 µM (inactive)

Given the entry `Cc1cc(C(=O)NCCN(C)C)c2nc3ccccc3nc2c1` , what GI50 was observed with IGROV-1?
4.81 µM (inactive)

Param readout = GI50; param system = IGROV-1; param query = COc1ccc(N2C(=O)C3c4[nH]c5ccc(F)cc5c4C4CCC(c5ccccc5)CC4C3C2=O)cc1 (configuration not stated) ; response: value
20.1 µM (inactive)

Request body: readout GI50, system IGROV-1, query CC(C)(C)C1CCC2c3c([nH]c4ccccc34)C3C(=O)N(c4cc(Cl)ccc4Cl)C(=O)C3C2C1 (configuration not stated) . Return the value.
> 100 µM (inactive)

# get_value(readout= GI50, system= IGROV-1) for `S=C1/C(=N/c2ccccc2)N(c2ccccc2)/C(=N\c2cccc[n+]2Cc2ccccc2)N1c1ccccc1`
22.5 µM (inactive)

Please tell me: GI50 of `Fc1cc(-c2ncc(Cl)cc2Cl)c2cccccc1-2` , system IGROV-1?
> 100 µM (inactive)

====

Attribute: GI50
Test system: ACHN
Assay: NCI tumour cell line growth inhibition, 48 h
The source made the active and inactive calls. Cut-off read from the data, not from the text of the source: active = GI50 up to about 1.1 µM and inactive = higher.

Some compounds with known GI50 results, for comparison:
COMPOUND	GI50
CC1=C(/C(C)=N/NS(=O)(=O)c2ccc(C)cc2)Sc2ccccc2N1	> 100 µM (inactive)
NN1C(=O)C(CCO)S/C1=N/N=C1/SC(CCO)C(=O)N1N (stereo not given)	> 100 µM (inactive)
C/C(=N\NC(=S)NC(C)(C)C)c1nc2cccnc2[nH]1	2.82 µM (inactive)

Looking for the measured GI50 of `CCOC(=O)/C(C(=O)c1ccccc1)=C1\N[C@H](C(=O)OCC)CS1` , can you help?
> 100 µM (inactive)

Give the measured GI50 of `O=c1oc2c(ccc3ccccc32)cc1C1=CSC2=NCCN12` .
35.2 µM (inactive)

Form field: reported GI50 of O=C1c2cc3ccccc3cc2C2(c3ccc(Cl)cc3)NCCN12 (stereo not given)
33 µM (inactive)

Quick one: GI50 of `O=C(NCCCCCCNC(=O)c1cc(-c2ccccc2)nc2ccccc12)c1cc(-c2ccccc2)nc2ccccc12` ?
> 100 µM (inactive)

====

System: SK-MEL-28
Assay: NCI tumour cell line growth inhibition, 48 h
Active and inactive are the calls of the source. No stated cut-off is given here; in the data, active = GI50 up to about 1.1 µM and inactive = higher.
MEASURED_PARAMETER: GI50

COMPOUND	TARGET_ENTITY	VALUE_MEASURED
O=C1c2ccccc2OP(=O)(OCC(F)(F)F)OC1(C(F)(F)F)C(F)(F)F (stereo not drawn)	SK-MEL-28	> 100 µM (inactive)
O=[N+]([O-])c1ccc2c(c1)n1c(N3CCCC3)[n+]3ccccc3c1c1c3ccccn3c(N3CCCC3)[n+]21.[O-][Cl+3]([O-])([O-])[O-].[O-][Cl+3]([O-])([O-])[O-]	SK-MEL-28	> 100 µM (inactive)

Item O=C(/C=C/c1ccccc1)CC1OC(=O)c2ccccc21 (stereo not drawn) has what recorded GI50?
> 100 µM (inactive)

Sample COc1ccc(N2C(=O)C3c4[nH]c5ccc(F)cc5c4C4CCC(c5ccccc5)CC4C3C2=O)cc1 (stereo not drawn) — what was its GI50?
13.5 µM (inactive)

Return reported GI50; argument: CCC/C(=N/NC(=O)C(N)=O)C(CC)C(=O)CCC(=O)N(Cc1ccccc1)Cc1ccccc1 (stereo not drawn)
> 100 µM (inactive)

Suppose we examine the compound `CC(C)NC(=O)OCc1c(COC(=O)NC(C)C)c(-c2ccc[n+](COC(=O)Cc3ccccc3)c2)n2c1CCC2` ; what GI50 value has been reported?
> 100 µM (inactive)

Look at this compound and give its reported GI50. `CCc1nc(N)nc(N)c1-c1ccc(Cl)c([N+](=O)[O-])c1`
37.9 µM (inactive)

Returns the measured GI50 for the input compound. Input: N#CC(C(=O)/C(=N\Nc1nc(S)nn1N)C(C#N)c1ccc(Cl)cc1)c1ccc(Cl)cc1 (stereo not drawn)
> 100 µM (inactive)
